Provenance of the data: ChEMBL document CHEMBL1155409

- Assay system: Integrin alpha-V/beta-3 (Homo sapiens)
- Test: Inhibition of human Integrin alphaVbeta3 isolated receptors assessed by standard competitive binding assay
Measurement type: IC50 (nM)

[1] Nc1cc(C[C@H](NS(=O)(=O)c2cccc(C(F)(F)F)c2)C(=O)O)ccc1OCCCc1ccc2c(n1)NCCC2
[2] NCCOCCOCCOCCOCCOCCOCC(=O)Nc1cc(C[C@H](NS(=O)(=O)c2cccc(C(F)(F)F)c2)C(=O)O)ccc1OCCCc1ccc2c(n1)NCCC2
[3] COCCOCCOCCOCC(=O)Nc1cc(C[C@H](NS(=O)(=O)c2cccc(C(F)(F)F)c2)C(=O)O)ccc1OCCCc1ccc2c(n1)NCCC2
# rank by IC50, ascending (min first) The reply should contain the labels ordered as requested.
1, 3, 2
(1: 0.1 nM, 3: 0.3 nM, 2: 0.7 nM)
